Measured values drawn from patent US20240400577A1 for this set.

# measured.on: KIT (Homo sapiens, UniProt P10721)
# Construct: purchased Nanosyn (contract screening)
# Sequence (P10721 26-976): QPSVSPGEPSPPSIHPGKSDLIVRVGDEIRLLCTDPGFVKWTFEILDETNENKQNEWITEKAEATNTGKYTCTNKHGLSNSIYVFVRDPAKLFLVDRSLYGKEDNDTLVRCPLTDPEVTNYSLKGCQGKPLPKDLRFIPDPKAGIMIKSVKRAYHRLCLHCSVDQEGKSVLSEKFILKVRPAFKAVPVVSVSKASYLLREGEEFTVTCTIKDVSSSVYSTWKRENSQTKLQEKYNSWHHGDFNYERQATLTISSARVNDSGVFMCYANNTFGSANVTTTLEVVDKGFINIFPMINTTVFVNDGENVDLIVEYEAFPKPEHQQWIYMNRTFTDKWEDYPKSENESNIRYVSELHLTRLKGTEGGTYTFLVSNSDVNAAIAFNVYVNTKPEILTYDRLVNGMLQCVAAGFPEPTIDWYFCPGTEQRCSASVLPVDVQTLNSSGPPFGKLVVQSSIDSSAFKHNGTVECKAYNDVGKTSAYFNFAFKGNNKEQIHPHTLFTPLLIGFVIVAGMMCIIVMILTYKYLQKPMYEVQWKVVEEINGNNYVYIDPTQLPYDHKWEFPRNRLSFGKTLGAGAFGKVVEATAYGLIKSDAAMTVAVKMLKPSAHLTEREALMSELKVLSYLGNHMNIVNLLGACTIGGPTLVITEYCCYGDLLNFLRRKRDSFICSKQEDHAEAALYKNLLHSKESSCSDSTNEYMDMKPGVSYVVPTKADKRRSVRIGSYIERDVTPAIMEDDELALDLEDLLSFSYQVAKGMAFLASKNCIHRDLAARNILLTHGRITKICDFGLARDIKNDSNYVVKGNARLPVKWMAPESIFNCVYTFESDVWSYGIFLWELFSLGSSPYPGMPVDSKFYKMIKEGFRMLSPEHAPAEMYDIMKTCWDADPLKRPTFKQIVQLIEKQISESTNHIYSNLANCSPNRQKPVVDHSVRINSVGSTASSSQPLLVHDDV
# protocol.notes: Kinase panel enzymatic inhibition assay (Nanosyn)
# Assay type: biochemical
# applied.conditions: compound 5 μM; ATP at Km; 30-minute pre-incubation
Each item that follows carries a reported inhibition at 5 µM.

CCOC(=O)Nc1cn2nc(Nc3cc(NC(=O)c4cc([S+](C)[O-])n(-c5ccc(F)cc5)n4)ccc3C)ccc2n1 (stereo not shown) [Ex18] : 80 to 89%
CNC(=O)c1cc(Oc2ccc(F)c(NC(=O)c3cc([S+](C)[O-])n(-c4ccc(F)cc4)n3)c2)ccn1 (stereo not shown) [Ex7] : < 79%
Cc1ccc(NC(=O)c2cc(S(C)(=O)=O)n(-c3ccc(F)cc3)n2)cc1-c1cc(OCCO)nc(N2CCOCC2)c1 [Ex9] : < 79%
Cc1ccc(NC(=O)c2cc([S+](C)[O-])n(-c3ccc(F)cc3)n2)cc1-c1cc(N2CCOCC2)c(=O)n(C)c1 (stereo not shown) [Ex11] : < 79%
CNC(=O)c1cc(Oc2ccc(NC(=O)c3cc(S(C)(=O)=O)n(-c4ccc(F)cc4)n3)c(F)c2)ccn1 [Ex17] : < 79%
Cc1ccc(NC(=O)c2cc(S(C)(=O)=O)n(-c3ccc(F)cc3)n2)cc1-c1cc(N2CCOCC2)c(=O)n(C)c1 [Ex12] : < 79%

Now look at this entry.
Task: Fill in the blank: the reported inhibition at 5 µM of Cc1ccc(NC(=O)c2cc(S(C)(=O)=O)n(-c3ccc(F)cc3)n2)cc1Nc1nccc(-c2cccnc2N)n1 [Ex13] is ____.
Result: ≥ 95%

----------
# measured.on: CSF1R (Homo sapiens, UniProt P07333)
# Construct: purchased Nanosyn (contract screening)
# Sequence (P07333 20-972): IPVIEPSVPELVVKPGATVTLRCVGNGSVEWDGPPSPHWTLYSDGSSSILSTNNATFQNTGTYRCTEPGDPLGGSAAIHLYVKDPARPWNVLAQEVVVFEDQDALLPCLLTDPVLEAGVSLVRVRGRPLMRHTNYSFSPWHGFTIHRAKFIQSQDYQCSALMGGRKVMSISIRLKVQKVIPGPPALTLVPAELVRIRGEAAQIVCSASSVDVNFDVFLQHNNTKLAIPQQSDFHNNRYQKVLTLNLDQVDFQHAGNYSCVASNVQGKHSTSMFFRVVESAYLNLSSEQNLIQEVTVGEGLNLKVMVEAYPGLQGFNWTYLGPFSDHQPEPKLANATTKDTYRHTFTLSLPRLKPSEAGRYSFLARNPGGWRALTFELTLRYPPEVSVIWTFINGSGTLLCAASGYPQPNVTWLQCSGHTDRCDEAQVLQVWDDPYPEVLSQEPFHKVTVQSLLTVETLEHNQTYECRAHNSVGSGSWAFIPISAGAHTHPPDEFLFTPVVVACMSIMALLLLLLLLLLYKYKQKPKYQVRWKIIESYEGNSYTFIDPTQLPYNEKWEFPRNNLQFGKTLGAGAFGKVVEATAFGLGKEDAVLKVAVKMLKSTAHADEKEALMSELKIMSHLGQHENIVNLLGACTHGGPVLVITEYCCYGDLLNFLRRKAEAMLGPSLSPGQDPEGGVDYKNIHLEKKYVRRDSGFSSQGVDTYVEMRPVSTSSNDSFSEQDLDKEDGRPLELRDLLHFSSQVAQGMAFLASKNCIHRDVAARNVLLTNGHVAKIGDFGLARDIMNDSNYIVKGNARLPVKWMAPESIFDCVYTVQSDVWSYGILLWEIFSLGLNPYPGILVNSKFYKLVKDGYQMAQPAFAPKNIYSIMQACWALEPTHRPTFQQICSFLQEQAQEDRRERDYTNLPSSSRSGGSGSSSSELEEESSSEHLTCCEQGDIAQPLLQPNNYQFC
# protocol.notes: Kinase panel enzymatic inhibition assay (Nanosyn)
# Type: biochemical
# applied.conditions: compound 5 μM; ATP at Km; 30-minute pre-incubation
result.type: inhibition at 5 µM

Cc1ccc(NC(=O)c2cc([S+](C)[O-])n(-c3ccc(F)cc3)n2)cc1-c1cc(OCCO)nc(N2CCOCC2)c1 (stereo not drawn) : < 79%
Cc1ccc(NC(=O)c2cc(S(C)(=O)=O)n(-c3ccc(F)cc3)n2)cc1C#Cc1cnc2cccnn12 : 90 to 94%

Now look at this entry.
Task: Fill in the blank: the reported inhibition at 5 µM of `Cc1ccc(NC(=O)c2cc(S(C)(=O)=O)n(-c3ccc(F)cc3)n2)cc1-c1cc(N2CCOCC2)c(=O)n(C)c1` is ____.
Result: < 79%

----------
# measured.on: PLK1 (Homo sapiens, UniProt P53350)
# Construct: Nanosyn (contract laboratory that ran the panel)
# Sequence (P53350 whole entry): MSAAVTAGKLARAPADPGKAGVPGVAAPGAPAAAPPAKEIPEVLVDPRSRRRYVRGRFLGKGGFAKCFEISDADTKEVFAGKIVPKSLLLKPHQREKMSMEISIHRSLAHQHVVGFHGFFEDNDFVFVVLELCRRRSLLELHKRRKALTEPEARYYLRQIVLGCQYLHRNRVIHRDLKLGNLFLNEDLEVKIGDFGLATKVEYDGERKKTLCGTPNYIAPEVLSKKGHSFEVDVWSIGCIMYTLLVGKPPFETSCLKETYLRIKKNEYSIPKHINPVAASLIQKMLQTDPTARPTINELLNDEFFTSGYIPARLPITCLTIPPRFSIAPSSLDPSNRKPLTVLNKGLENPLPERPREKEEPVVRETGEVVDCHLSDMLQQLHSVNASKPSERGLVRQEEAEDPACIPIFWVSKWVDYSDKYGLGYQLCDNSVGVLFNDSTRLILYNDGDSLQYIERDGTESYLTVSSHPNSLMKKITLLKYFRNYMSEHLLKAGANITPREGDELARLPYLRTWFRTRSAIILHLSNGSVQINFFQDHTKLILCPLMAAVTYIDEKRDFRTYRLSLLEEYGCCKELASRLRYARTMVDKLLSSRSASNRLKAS
# protocol.notes: Kinase panel enzymatic inhibition assay (Nanosyn)
# Type: biochemical
# applied.conditions: ATP at Km; 30-minute pre-incubation; read-out: kinase inhibition in terms of IC50, PLK1
pIC50: −log10 of the molar value.
result.type: pIC50

Task: Fill in the blank: the reported pIC50 of `COc1cc2nccc(Oc3ccc(NC(=O)c4cc(S(C)(=O)=O)n(-c5ccc(F)cc5)n4)cc3F)c2cc1OC` is ____.
Result: ≤ 5.00

----------
# measured.on: BRAF (Homo sapiens)
# Construct: purchased Nanosyn (contract screening)
# Sequence (P15056 whole entry): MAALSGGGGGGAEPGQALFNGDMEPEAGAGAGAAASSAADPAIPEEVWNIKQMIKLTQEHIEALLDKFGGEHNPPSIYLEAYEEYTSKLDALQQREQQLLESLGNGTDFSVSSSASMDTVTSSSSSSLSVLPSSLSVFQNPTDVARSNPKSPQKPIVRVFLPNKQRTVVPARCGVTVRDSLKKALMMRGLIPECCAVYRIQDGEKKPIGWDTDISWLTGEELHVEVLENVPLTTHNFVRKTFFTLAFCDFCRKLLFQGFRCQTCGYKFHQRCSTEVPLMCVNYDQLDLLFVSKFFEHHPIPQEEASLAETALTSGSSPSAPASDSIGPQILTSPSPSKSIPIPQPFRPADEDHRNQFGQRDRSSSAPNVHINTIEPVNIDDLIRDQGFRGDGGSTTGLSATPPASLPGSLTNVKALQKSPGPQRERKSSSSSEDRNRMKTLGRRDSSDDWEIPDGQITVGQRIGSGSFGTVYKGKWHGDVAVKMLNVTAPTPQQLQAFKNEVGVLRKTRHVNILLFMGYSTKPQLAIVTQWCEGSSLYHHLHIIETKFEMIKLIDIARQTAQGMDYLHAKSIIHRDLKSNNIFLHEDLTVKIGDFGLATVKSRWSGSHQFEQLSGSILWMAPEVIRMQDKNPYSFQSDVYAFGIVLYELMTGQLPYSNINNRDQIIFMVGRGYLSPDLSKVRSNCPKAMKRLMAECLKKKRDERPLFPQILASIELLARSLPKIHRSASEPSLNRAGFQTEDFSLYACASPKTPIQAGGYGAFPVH
# protocol.notes: Kinase panel enzymatic inhibition assay (Nanosyn)
# Type: biochemical
# applied.conditions: compound 5 μM; ATP at Km; 30-minute pre-incubation
result.type: inhibition at 5 µM

These solved cases illustrate the format of a correct answer.
Cc1ccc(NC(=O)c2cc(S(C)(=O)=O)n(-c3ccc(F)cc3)n2)cc1Nc1nccc(-c2cccnc2N)n1 [Ex13] : ≥ 95%
CCOC(=O)Nc1cn2nc(Nc3cc(NC(=O)c4cc(S(C)(=O)=O)n(-c5ccc(F)cc5)n4)ccc3C)ccc2n1 [Ex15] : ≥ 95%
CNC(=O)c1cc(Oc2ccc(F)c(NC(=O)c3cc([S+](C)[O-])n(-c4ccc(F)cc4)n3)c2)ccn1 (stereo not shown) [Ex7] : 90 to 94%
Cc1ccc(NC(=O)c2cc([S+](C)[O-])n(-c3ccc(F)cc3)n2)cc1C#Cc1cnc2cccnn12 (stereo not shown) [Ex6] : ≥ 95%
Cc1ccc(NC(=O)c2cc([S+](C)[O-])n(-c3ccc(F)cc3)n2)cc1Nc1ccc2ncn(C)c(=O)c2c1 (stereo not shown) [Ex5] : ≥ 95%
Cc1ccc(NC(=O)c2cc(S(C)(=O)=O)n(-c3ccc(F)cc3)n2)cc1-c1cc(N2CCOCC2)c(=O)n(C)c1 [Ex12] : ≥ 95%

Now look at this entry.
Task: Fill in the blank: the reported inhibition at 5 µM of CCOC(=O)Nc1cn2nc(Nc3cc(NC(=O)c4cc([S+](C)[O-])n(-c5ccc(F)cc5)n4)ccc3C)ccc2n1 (stereo not shown) [Ex18] is ____.
Result: 90 to 94%
